B1: BTBD1 (parent)
chain: YGSIHGPTDYQVNIQIIEYEKKQT

Variants of: B1
assay-details: protein stability index of a GFP-peptide fusion (GPS, HEK-293T) (PSI 1-6); higher = more stable;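 note: lentivirally expressed fusions sorted by FACS into six bins by GFP to DsRed ratio, PSI derived from sequencing read proportions per bin multiplied by bin number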
test-parameters: c terminus: a fixed tail appended
The label depends only on protein stability index: criterion met if it is at least 3, criterion not met if it is smaller.

See these solved cases before continuing.
variant-id: E20G
assigned-category: criterion not met
//
variant-id: Q15Y
assigned-category: criterion not met
//
variant-id: Y10M
assigned-category: criterion met
//
variant-id: G2E
assigned-category: criterion met
//
variant-id: G6F
assigned-category: criterion not met

Input: Check the entry `I4E` : does protein stability index equal or exceed 3?
Output: criterion met

Input: Check the entry `Q23T` : does protein stability index equal or exceed 3?
Output: criterion not met

Input: Check the entry `P7H` : does protein stability index equal or exceed 3?
Output: criterion not met
